# credit: patent US11253524B2

- system: OATP1B1 (Homo sapiens)
- Sequence (Q9Y6L6 1-691): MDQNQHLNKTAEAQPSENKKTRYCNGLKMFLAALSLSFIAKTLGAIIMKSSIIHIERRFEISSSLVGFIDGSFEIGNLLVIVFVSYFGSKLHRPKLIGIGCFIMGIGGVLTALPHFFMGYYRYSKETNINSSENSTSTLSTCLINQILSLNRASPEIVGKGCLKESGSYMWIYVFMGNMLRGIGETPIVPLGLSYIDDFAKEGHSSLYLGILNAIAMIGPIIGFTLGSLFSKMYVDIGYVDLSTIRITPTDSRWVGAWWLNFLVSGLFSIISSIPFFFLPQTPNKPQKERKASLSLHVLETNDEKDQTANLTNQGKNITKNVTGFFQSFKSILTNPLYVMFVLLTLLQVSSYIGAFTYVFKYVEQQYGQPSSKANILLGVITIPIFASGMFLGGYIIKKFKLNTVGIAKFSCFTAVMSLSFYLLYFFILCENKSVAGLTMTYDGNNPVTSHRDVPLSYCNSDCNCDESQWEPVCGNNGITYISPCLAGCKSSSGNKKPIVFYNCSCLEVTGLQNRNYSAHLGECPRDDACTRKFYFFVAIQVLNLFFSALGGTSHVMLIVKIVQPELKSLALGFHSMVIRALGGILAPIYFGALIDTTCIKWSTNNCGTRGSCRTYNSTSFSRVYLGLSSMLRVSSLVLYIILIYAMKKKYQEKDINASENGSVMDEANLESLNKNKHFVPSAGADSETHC
- run-description: OATP1B1 inhibition assay using Fluo-3 as probe substrate, CHO cells
- Type: cell-based
- Parameters: expressed in transfected cells; host or cells: CHO cells
- test-settings: human, CHO cells transfected with human OATP1B1, pH 7.4, probe Fluo-3 (2 μM); OATP1B1, Fluo-3, at 100 μM; read-out: Maximum inhibition at highest test conc. (% of control)

molecule	system	inhibition at 1 h, 100 µM / %
O=C(NCc1c(F)cc(F)c(O)c1F)c1cn2c(c(O)c1=O)C(=O)N1[C@H]3CC[C@H](C3)O[C@@H]1C2 [Metabolite M23]	OATP1B1 (Homo sapiens)	51
O=C(NCc1c(F)cc(F)cc1F)c1cn2c(c(O[C@@H]3O[C@H](C(=O)O)[C@@H](O)[C@H](O)[C@H]3O)c1=O)C(=O)N1[C@H]3CC[C@H](C3)O[C@@H]1C2 [Metabolite M15]	OATP1B1 (Homo sapiens)	39
O=C(NCc1c(F)cc(F)c(OS(=O)(=O)O)c1F)c1cn2c(c(O)c1=O)C(=O)N1C(C2)O[C@@H]2CC[C@H]1C2 (stereo partly drawn) [Metabolite M20]	OATP1B1 (Homo sapiens)	54

====

Reported pIC50 for target or system human hepatic microsomal UGT1A1 (Homo sapiens), by entry.
pIC50: −log10 of the molar value.

molecule	operator	pIC50
O=C(NCc1c(F)cc(F)c(OS(=O)(=O)O)c1F)c1cn2c(c(O)c1=O)C(=O)N1C(C2)O[C@@H]2CC[C@H]1C2 (some centres unmarked) [Metabolite M20]	=	3.82
O=C(NCc1c(F)cc(F)c(O)c1F)c1cn2c(c(O)c1=O)C(=O)N1[C@H]3CC[C@H](C3)O[C@@H]1C2 [Metabolite M23]	=	3.59
COC(=O)N[C@H](C(=O)N[C@@H](Cc1ccccc1)[C@@H](O)CN(Cc1ccc(-c2ccccn2)cc1)NC(=O)[C@@H](NC(=O)OC)C(C)(C)C)C(C)(C)C [atazanavir, reference compound]	=	5.92
O=C(NCc1c(F)cc(F)cc1F)c1cn2c(c(O[C@@H]3O[C@H](C(=O)O)[C@@H](O)[C@H](O)[C@H]3O)c1=O)C(=O)N1[C@H]3CC[C@H](C3)O[C@@H]1C2 [Metabolite M15]	<	3.52
O=C(NCc1c(F)cc(F)cc1F)c1cn2c(c(O)c1=O)C(=O)N1[C@H]3CC[C@H](C3)O[C@@H]1C2 [BIC, bictegravir, reference compound]	<	3.52
